Test system: HT29 colon
ASSAY EXPLANATION: NCI tumour cell line growth inhibition, 48 h; in the data active = GI50 below about 0.43 µM; inactive = the rest
Labels: label 1 (active), label 0 (inactive)

INSERT INTO measurements (compound, assigned_label) VALUES
  ('Cc1cc(C)nc(SC2=C(Nc3ccc(C)c(Cl)c3)C(=O)N(Cc3ccccc3)C2=O)n1', 'label 0'),
  ('N#C/C(=C\c1ccsc1)c1nc2ccccc2o1', 'label 0'),
  ('O=C(N/N=C/C=C/c1ccc([N+](=O)[O-])o1)c1cc2ccccc2cc1O', 'label 0'),
  ('CCCCCCC[CH2][Sn]([CH2]CCCCCCC)([O]c1cccc2cccnc12)[O]c1cccc2cccnc12', 'label 0'),
  ('C[C@H]1CC[C@@]2(NC1)O[C@H]1C[C@H]3[C@@H]4CC[C@H]5C[C@@H](O)CC[C@]5(C)[C@H]4CC[C@]3(C)[C@H]1[C@@H]2C', 'label 0'),
  ('Cc1[nH]c2ccccc2c1CCCO', 'label 0'),
  ('O=C1OCC2=C1C(c1cccc(Cl)c1)c1cc3c(cc1N2CCO)OCCO3 (stereo not given)', 'label 1'),
  ('CCCCOC(=O)N1CCN(/[N+]([O-])=N/Oc2ccc([N+](=O)[O-])cc2[N+](=O)[O-])CC1', 'label 0'),
  ('CN(C)CCN1C(=O)c2c(c3c4ccccc4n4c3c3c2c2ccccc2n3C2CC(O)C(O)C4(C)O2)C1=O (stereo not given)', 'label 0'),
  ('Cc1cc2c(cc1Cl)SC1=NN(C)C(C)N1S2(=O)=O (stereo not given)', 'label 0');

====

Tested on: MALME-3M melanoma
ASSAY EXPLANATION: NCI tumour cell line growth inhibition, 48 h
EXPERIMENTAL ENDPOINT: TGI (µM)

INSERT INTO results (molecule, experimental_endpoint, relational_operator, data_value) VALUES
  ('O=S(Nc1ccccc1)c1ccc(N2CCOCC2)cc1 (centres undefined)', 'TGI', '>', 100),
  ('O=C(Nc1cccc(-n2cc(-c3ccncc3)c(-c3ccc(Cl)c(O)c3)n2)c1)Nc1cc(C(F)(F)F)cc(C(F)(F)F)c1', 'TGI', '=', 2.24),
  ('COc1cc(OC)c2nc(C)c3c(c2c1)SCC3', 'TGI', '=', 63.8),
  ('O=S(=O)(c1ccc(NC2=NC(c3ccc(O)cc3)(c3ccccc3O)c3ccccc32)cc1)c1ccc(NC2=NC(c3ccc(O)cc3)(c3ccccc3O)c3ccccc32)cc1 (centres undefined)', 'TGI', '=', 13.1);

====

Reported TGI values follow for various molecules
System: DMS 273 small cell lung
ASSAY EXPLANATION: NCI tumour cell line growth inhibition, 48 h
EXPERIMENTAL ENDPOINT: TGI

INSERT INTO results (molecule, data_value) VALUES
  ('Cc1ccccc1C1OC(=O)c2ccc3ccccc3c21 (configuration not stated)', '12.4 µM'),
  ('N/N=C(/C(=O)Nc1cccc(Cl)c1)C(C(=O)c1ccc(O)cc1O)C1OC(=O)c2ccccc21 (configuration not stated)', '> 100 µM'),
  ('O=C1CCCCC1S(=O)(=O)c1ccccc1 (configuration not stated)', '> 100 µM'),
  ('CCOc1cc2c(C(=O)CC)c(O)ccc2o1', '> 100 µM'),
  ('[Cl][Sn]([c]1ccccc1)([c]1ccccc1)[c]1ccccc1', '0.0761 µM'),
  ('COc1cc2ccnc3c2c(c1OC)-c1coc(SC)c1-3', '> 100 µM'),
  ('CCCCCCC[CH2][Sn]([CH2]CCCCCCC)([O]c1cccc2cccnc12)[O]c1cccc2cccnc12', '3.99 µM'),
  ('OC(CCNC12CC3CC(CC(C3)C1)C2)c1ccccc1 (configuration not stated)', '> 100 µM'),
  ('NC(=O)CN(CC(N)=O)C(N)=O', '> 100 µM'),
  ('COc1c(O)c(C=O)c2c(O)c(-c3c(C)cc4c(C(C)C)c(OC)c(O)c(C=O)c4c3O)c(C)cc2c1C(C)C', '14.9 µM'),
  ('c1cncc(C2N3CCCCC3[C@@H]3c4[nH]c5ccccc5c4CCN23)c1 (some centres not stated)', '> 100 µM'),
  ('O=[N+]([O-])c1ccc(-n2nnc(C3=NCCN3)c2-c2ccccc2)cc1', '> 100 µM');

====

Reported TGI values follow for various compounds
System: SK-OV-3 ovarian
ASSAY EXPLANATION: NCI tumour cell line growth inhibition, 48 h
EXPERIMENTAL ENDPOINT: TGI (µM)

INSERT INTO measurements (compound, experimental_endpoint, relational_operator, data_value) VALUES
  ('CCCC(=O)NC(Nc1ccc(S(=O)(=O)Nc2cc(C)on2)cc1)(C(=O)OCC)C(F)(F)F (centres undefined)', 'TGI', '>', 100),
  ('CC(NC(=O)C(NC(=O)CNC(=O)OC(C)(C)C)C(C)C)C(=O)Oc1c(Cl)c(Cl)c(Cl)c(Cl)c1Cl (centres undefined)', 'TGI', '=', 51.5),
  ('COc1cc2ccc(=O)oc2cc1O', 'TGI', '=', 509),
  ('Cc1cc(-c2nc3cc(F)ccc3s2)ccc1NC(=O)[C@@H](N)CCCCN', 'TGI', '=', 25.7);

====

System: CCRF-CEM leukemia
ASSAY EXPLANATION: NCI tumour cell line growth inhibition, 48 h; in the data active = GI50 below about 0.43 µM; inactive = the rest
Labels: active, inactive

INSERT INTO assay_data (compound, assigned_label) VALUES
  ('Cc1ccccc1OCC(O)CN1CCN(c2ccc(Cl)cc2)CC1 (configuration not stated)', 'inactive'),
  ('O=C(Nc1cccc(-n2cc(-c3ccncc3)c(-c3ccc(Cl)c(O)c3)n2)c1)Nc1cc(C(F)(F)F)cc(C(F)(F)F)c1', 'inactive'),
  ('O=C1OCC2=C1C(c1cccc(Cl)c1)c1cc3c(cc1N2CCO)OCCO3 (configuration not stated)', 'active'),
  ('Cn1ncnc1[C@H]1c2n[nH]c(=O)c3cc(F)cc(c23)N[C@@H]1c1ccc(F)cc1', 'inactive'),
  ('Cc1cc([N+](=O)[O-])c(NS(=O)(=O)c2cccc(C(=O)O)c2)cc1-c1cccnc1', 'inactive'),
  ('C#CC#CC#CC#CC#CC#CC#CC#CCC1OCC(COC(=O)O[C@@H](C(=O)O[C@H]2C[C@@]3(O)[C@@H](OC(=O)c4ccccc4)[C@@H]4[C@]5(OC(C)=O)CO[C@@H]5C[C@H](O)[C@@]4(C)C(=O)[C@H](OC(C)=O)C(=C2C)C3(C)C)[C@@H](NC(=O)c2ccccc2)c2ccccc2)O1 (some centres not stated)', 'active'),
  ('C=CCN=C(N/N=C/c1ccc([N+](=O)[O-])o1)NS(=O)(=O)c1cc(C(=O)Nc2ccc(Cl)cc2)c(Cl)cc1SC', 'inactive');

====

System: SK-OV-3 ovarian
ASSAY EXPLANATION: NCI tumour cell line growth inhibition, 48 h
EXPERIMENTAL ENDPOINT: TGI

INSERT INTO results (compound, measured_target, data_value) VALUES
  ('C/C(=N/NC(=S)N1CCCCC1)c1ccccc1O', 'SK-OV-3 ovarian', '> 31.6 µM'),
  ('Cc1ccc(S(=O)(=O)c2c(COC(=O)c3cccc(C)c3)c(-c3ccccc3)nn2C)cc1', 'SK-OV-3 ovarian', '> 100 µM'),
  ('ClCCCc1ccccc1C1=NCCc2ccccc21', 'SK-OV-3 ovarian', '> 100 µM'),
  ('CCCCC(=O)c1c(O)nc2sccn2c1=O', 'SK-OV-3 ovarian', '> 10 µM'),
  ('Cn1ncnc1[C@H]1c2n[nH]c(=O)c3cc(F)cc(c23)N[C@@H]1c1ccc(F)cc1', 'SK-OV-3 ovarian', '> 100 µM'),
  ('COc1ccc2c3c1OC1C(=O)C=CC4(CC2)N(C)CCC314 (stereo unspecified)', 'SK-OV-3 ovarian', '> 100 µM'),
  ('OC1(c2ccccc2)CCN(Cc2c[nH]c3ccccc23)CC1', 'SK-OV-3 ovarian', '> 100 µM'),
  ('C[C@@H]1[C@H](C)N1CC(O)Cn1ccnc1[N+](=O)[O-] (stereo partly specified)', 'SK-OV-3 ovarian', '> 100 µM'),
  ('O=C1NC(Nc2ccccc2)=NC(C(F)(F)F)(C(F)(F)F)N1', 'SK-OV-3 ovarian', '> 100 µM'),
  ('Cc1cccc(Nc2nn3c(=O)c4c5c(sc4nc3s2)CCCC5)c1', 'SK-OV-3 ovarian', '> 100 µM'),
  ('C=CCN=C(N/N=C/c1ccc([N+](=O)[O-])o1)NS(=O)(=O)c1cc(C(=O)Nc2ccc(Cl)cc2)c(Cl)cc1SC', 'SK-OV-3 ovarian', '> 100 µM');

====

Reported GI50 values follow for various molecules
Tested on: SN12C renal
ASSAY EXPLANATION: NCI tumour cell line growth inhibition, 48 h
EXPERIMENTAL ENDPOINT: GI50

INSERT INTO measurements (item_smiles, experimental_endpoint, data_value) VALUES
  ('C=CCN=C(N/N=C/c1ccc([N+](=O)[O-])o1)NS(=O)(=O)c1cc(C(=O)Nc2ccc(Cl)cc2)c(Cl)cc1SC', 'GI50', '2.63 µM'),
  ('Cc1cc(F)ccc1S(=O)(=O)Nc1cc(-c2c(O)ccc3ccccc23)c(O)c2ccccc12', 'GI50', '2.8 µM'),
  ('C=Cc1cncc(C#N)c1CCc1c(C#N)cncc1C=C', 'GI50', '> 100 µM');
